Data origin: patent US20240294595A1

Target: T1, VPAC2
T1 sequence (P41587 whole entry, species assumed, looked up): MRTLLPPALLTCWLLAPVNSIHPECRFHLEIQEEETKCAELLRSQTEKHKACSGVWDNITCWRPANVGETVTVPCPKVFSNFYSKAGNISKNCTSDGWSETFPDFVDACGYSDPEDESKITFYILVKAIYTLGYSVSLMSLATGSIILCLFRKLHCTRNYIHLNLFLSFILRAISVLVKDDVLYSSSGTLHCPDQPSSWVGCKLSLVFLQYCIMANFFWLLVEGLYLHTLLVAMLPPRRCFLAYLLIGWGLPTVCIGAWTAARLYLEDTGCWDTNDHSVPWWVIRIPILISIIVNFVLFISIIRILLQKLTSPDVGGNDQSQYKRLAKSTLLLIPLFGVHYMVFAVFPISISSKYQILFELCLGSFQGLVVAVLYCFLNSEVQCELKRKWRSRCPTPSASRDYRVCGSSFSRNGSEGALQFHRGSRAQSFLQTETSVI
Assay: cell-based or functional assay
Where no end group is shown, it is not given here. [ ]: non-standard residue; d: D form. The star is where a group is joined. βGlc = OC[C@H]1O[C@@H](*)[C@H](O)[C@@H](O)[C@@H]1O; Nle = CCCC[C@H](N)C(=O)O
Overview of recorded EMax (agonist) for various binders

>  <binder>
HSDGIFADSYSRYRKQXAVKKYLAAVLS (D-Serine at 2 (s); L-Nor-Leucine at 17 (Ñ, written X in letters); Ser 28 = L-Ser(β-D-Glc)) [HsDGIFADSYSRYRKQÑAVKKYLAAVL-Ser(Glc)]

>  <unitSpec>
%

>  <EMax (agonist)>
-42

$$$$
>  <binder>
HSDGIFTDSYSRYRKQXAVKKYLAAVS (D-Serine at 2 (s); L-Nor-Leucine at 17 (Ñ, written X in letters); Ser 27 = L-Ser(β-D-Glc)) [HsDGIFTDSYSRYRKQÑAVKKYLAAV-Ser(Glc)]

>  <unitSpec>
%

>  <EMax (agonist)>
107

$$$$
>  <binder>
H[dS]DGIFTDSYSRYRKQ[Nle]AVKKYLAALS(βGlc)L-NH2 (ends and bridges not checked) [HsDGIFTDSYSRYRKQÑAVKKYLAAL-Ser(Glc)-L]

>  <unitSpec>
%

>  <EMax (agonist)>
-95

$$$$
>  <binder>
HSDGIFTDSYSRYRKQXAVKKYLAAVLS (D-Serine at 2 (s); L-Nor-Leucine at 17 (Ñ, written X in letters); Ser 28 = L-Ser(β-D-Glc)) [HsDGIFTDSYSRYRKQÑAVKKYLAAVL-Ser(Glc)]

>  <unitSpec>
%

>  <EMax (agonist)>
104

$$$$
>  <binder>
HSDGIFTDSYSRYRKQLAVKKYLAAVLS(melibiose)-NH2 [HSDGIFTDSYSRYRKQLAVKKYLAAVL-Ser(Mel)]

>  <unitSpec>
%

>  <EMax (agonist)>
86

$$$$
